This section presents binders with their documented pKd values.
biological target: T1, human SIRPβ1 domain 1 (D1) Fc fusion (human, UniProt O00241 30-148); experiment: Octet, Fab monovalent
T1 construct: Made in HEK293/T cells with a heterologous signal peptide; also called Human SIRPβ1 D1-Fc; Human SIRPβ1-Fc; not shown: C-terminal human IgG1 Fc
T1 sequence (O00241 30-148 limits assumed): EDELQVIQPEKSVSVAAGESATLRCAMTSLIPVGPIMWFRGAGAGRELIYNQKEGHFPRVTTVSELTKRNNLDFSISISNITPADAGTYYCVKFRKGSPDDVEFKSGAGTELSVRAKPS
pKd: −log10 of the molar value.

binder: SB-49 Fab (Fab, V domains shown, Fab by papain digestion) VH: QLQLQESGPGLVKPSETLSLTCTVSGGSISSSDYYWGWIRQPPGKGLEWIGSIYYSGSTYYNPSLKSRVTISVDTSKNQFSLKLSSVTAADTAVYYCARGPTGYKDKWRYYYGMDVWGQGTTVTVSS VL: DIQMTQSPSSLSASVGDRVTITCQASQDITNYLNWYQQKPGKAPKLLIYDASNLETGVPSRFSGSGSGTDFTFTISSLQPEDIATYYCQQYFHPPLTFGGGTKVEIK
pKd: 6.81

binder: SB-8 Fab (Fab, V domains shown, Fab by papain digestion) VH: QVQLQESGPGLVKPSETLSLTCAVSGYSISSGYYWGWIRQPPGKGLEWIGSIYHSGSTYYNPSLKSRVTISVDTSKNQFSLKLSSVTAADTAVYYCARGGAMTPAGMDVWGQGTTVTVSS VL: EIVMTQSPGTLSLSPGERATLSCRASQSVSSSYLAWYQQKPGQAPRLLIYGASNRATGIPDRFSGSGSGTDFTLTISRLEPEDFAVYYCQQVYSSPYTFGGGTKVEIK
pKd: 6.90

binder: SB-2 Fab (Fab, V domains shown, Fab by papain digestion) VH: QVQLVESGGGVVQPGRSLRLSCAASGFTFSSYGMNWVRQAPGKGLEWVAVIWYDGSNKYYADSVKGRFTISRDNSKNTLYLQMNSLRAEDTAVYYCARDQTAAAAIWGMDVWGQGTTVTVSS VL: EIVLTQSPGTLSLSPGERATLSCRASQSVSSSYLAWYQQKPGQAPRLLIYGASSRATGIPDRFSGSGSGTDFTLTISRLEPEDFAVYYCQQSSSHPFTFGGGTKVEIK
pKd: 6.58

binder: SB-40 Fab (Fab, V domains shown, Fab by papain digestion) VH: QVQLVQSGAEVKKPGASVKVSCKASGYTFTSYYMSWVRQAPGQGLEWMGIINPSGGSTSYAQKFQGRVTMTRDTSTSTVYMELSSLRSEDTAVYYCARDTGEYSYSPHGMDVWGQGTTVTVSS VL: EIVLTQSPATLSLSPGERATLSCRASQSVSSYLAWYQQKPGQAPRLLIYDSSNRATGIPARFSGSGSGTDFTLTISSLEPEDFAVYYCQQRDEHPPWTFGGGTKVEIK
pKd: 6.37
